Biological target: IRAK4 (Homo sapiens)
Construct: endogenous in cells; host or cells: THP-1 cells
Sequence (Q9NWZ3 whole entry): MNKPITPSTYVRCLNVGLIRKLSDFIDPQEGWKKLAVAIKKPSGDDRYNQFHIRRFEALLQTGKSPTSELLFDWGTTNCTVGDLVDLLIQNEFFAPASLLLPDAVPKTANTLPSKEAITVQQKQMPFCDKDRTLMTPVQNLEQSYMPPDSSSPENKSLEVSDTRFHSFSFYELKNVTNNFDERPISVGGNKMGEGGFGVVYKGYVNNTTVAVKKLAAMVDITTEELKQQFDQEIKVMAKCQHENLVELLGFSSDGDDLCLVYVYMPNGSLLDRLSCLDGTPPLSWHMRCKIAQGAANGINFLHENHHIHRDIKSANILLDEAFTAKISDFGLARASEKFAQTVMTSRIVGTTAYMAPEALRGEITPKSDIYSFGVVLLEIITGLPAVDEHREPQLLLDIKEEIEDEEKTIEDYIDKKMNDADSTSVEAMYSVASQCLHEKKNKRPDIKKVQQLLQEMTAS
Assay: LVL THP1 HTRF (THP1 Homogeneous Time Resolved Fluorescence)
Type: cell-based
Conditions: THP1 cells, 18 h incubation with compound
metric: LVL THP1 HTRF YMIN (%)

• C[C@H](C#N)Nc1cc(-n2ncc3cc(C#N)c(N)nc32)ncc1-n1cc([C@H]2CC[C@H](CCN3CC[C@H]4[C@@H]3CCN4c3ccc([C@@]4(C)CCC(=O)NC4=O)cc3)CC2)nn1 (single isomer, unassigned) [P-453] = 0.6
• C[C@H](C#N)Nc1cc(-n2ncc3cc(C#N)cnc32)ncc1-n1cc([C@H]2CC[C@H](CCN3CC[C@H]4[C@@H]3CCN4c3ccc([C@@]4(C)CCC(=O)NC4=O)cc3)CC2)nn1 (single isomer, unassigned) [P-454] = 1.1
• CNc1nc2c(cnn2-c2cc(N[C@H](C)C#N)c(C(=O)N[C@H]3CC[C@H](CCN4CCN(c5ccc(C6CCC(=O)NC6=O)cc5)CC4)CC3)cn2)cc1C#N (stereo partly shown) = 1.1
• C[C@H](C#N)Nc1cc(-n2ncc3cc(C#N)cnc32)ncc1-n1cc(C2CCC(CCN3[C@H](C)CN(c4ccc([C@@]5(C)CCC(=O)NC5=O)cc4)C[C@H]3C)CC2)nn1 (stereo partly shown) = 3.9
• C[C@H](C#N)Nc1cc(-n2ncc3cc(C#N)cnc32)ncc1-n1cc([C@H]2CC[C@H](CCN3CCN(c4ccc5c(N6CCC(=O)NC6=O)nn(C)c5c4)[C@@H](C)C3)CC2)nn1 = −0.79

I: C[C@H](C#N)Nc1cc(-n2ncc3cc(C#N)cnc32)ncc1C(=O)N[C@H]1CC[C@H](CCN2CCN(c3ccc(C4CCC(=O)NC4=O)cc3)C3(COC3)C2)CC1 (stereo partly shown)
II: C[C@H](C#N)Nc1cc(-n2ncc3cc(C#N)cnc32)ncc1-c1cn(C2CCC(CCN3CCN(c4ccc(C5CCC(=O)NC5=O)cc4)CC3)CC2)nn1 (stereo partly shown)
Between I and II , which one shows the larger LVL THP1 HTRF YMIN value? The response must carry the label of the picked entry. I
(I: 24.9%, II: 2.2%)
